Source listed as ChEMBL document CHEMBL3797043.

- target or system: Liver carboxylesterase (Sus scrofa)
- Sequence (Q29550 whole entry): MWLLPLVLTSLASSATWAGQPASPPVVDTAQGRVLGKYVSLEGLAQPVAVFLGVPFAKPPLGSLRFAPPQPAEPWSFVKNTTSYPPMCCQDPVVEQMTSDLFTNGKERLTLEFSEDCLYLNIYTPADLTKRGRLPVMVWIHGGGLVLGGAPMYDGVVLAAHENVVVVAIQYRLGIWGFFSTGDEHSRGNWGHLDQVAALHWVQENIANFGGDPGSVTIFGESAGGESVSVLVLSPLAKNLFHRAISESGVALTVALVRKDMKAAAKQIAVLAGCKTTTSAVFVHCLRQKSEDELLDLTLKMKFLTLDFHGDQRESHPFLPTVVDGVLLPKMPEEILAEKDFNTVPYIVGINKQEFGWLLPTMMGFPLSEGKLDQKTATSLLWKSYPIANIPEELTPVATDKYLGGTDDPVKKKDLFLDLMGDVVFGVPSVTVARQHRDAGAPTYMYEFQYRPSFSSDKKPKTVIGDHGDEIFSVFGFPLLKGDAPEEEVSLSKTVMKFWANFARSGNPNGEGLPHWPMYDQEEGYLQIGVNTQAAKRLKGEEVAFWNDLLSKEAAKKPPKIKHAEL
Lab note: cut-off is 800 nM. Strictly less in IC50 is YES. Exactly 800 nM or more is NO.

Consider the worked cases shown below.
O=C(Nc1ccccc1)N1CCC(c2nc(C3=NOC(c4ccccc4)C3)cs2)CC1 (stereo not given) :: NO
O=C(Oc1ccccc1Cl)N1CCC(c2nc(C3=NOC(c4ccccc4)C3)cs2)CC1 (stereo not given) :: NO
Cc1ccccc1OC(=O)N1CCC(c2nc(C3=NOC(c4ccccc4)C3)cs2)CC1 (stereo not given) :: NO
O=C(Oc1ccc(Cl)cc1)N1CCC(c2nc(C3=NOC(c4ccccc4)C3)cs2)CC1 (stereo not given) :: YES

Attention now shifts to the item below.
-- ask Please determine if O=C(Oc1ccccc1)N1CCC(c2nc(C3=NOC(c4ccccc4)C3)cs2)CC1 (stereo not given) is below 800 nM in terms of IC50.
-- reply NO
